The measured values listed here are drawn from ChEMBL document CHEMBL1129759.

Measured half-life, listed per entry.
- assay.text: Half-life […] at pH 3.0
- Assay type: ADME, cell-free
property.label: half-life (min)

{"columns": ["smiles.notation", "test.value"],
 "data": [
  ["COC(=O)[C@]1(C)N=C2C(=O)C=C3N(C(=O)OC(C)(C)C)C[C@H]4C[C@@]34C2=C1O", 660],
  ["Cc1c[nH]c2c1[C@@]13C[C@@H]1CN(C(=O)OC(C)(C)C)C3=CC2=O", 2220],
  ["COC(=O)c1cc2c([nH]1)C(=O)C=C1N(C(=O)OC(C)(C)C)C[C@H]3C[C@]123", 10600]
]}
